# Tested on: A498
# Assay Text: NCI tumour cell line growth inhibition, 48 h
Activity calls are given as the source filed them. Cut-off read from the data, not from the text of the source: active = GI50 up to about 1.1 µM and inactive = higher.
Classes used: y (active), n (inactive)

- Compound: "Cc1cc(N(CCC#N)S(=O)(=O)c2ccccc2)ccc1C=O"
  Assigned Class: "n"
- Compound: "COc1ccc2nc3ccccc3c(NCCCN(C)CCCl)c2c1"
  Assigned Class: "y"
- Compound: "NC(Cc1c[nH]c2ccccc12)P(=O)(O)O (stereo unspecified)"
  Assigned Class: "n"
- Compound: "O=C(/C=C/c1ccc(Cl)c(Cl)c1)Oc1ccc(/C=C2\\CCCCC2=O)cc1"
  Assigned Class: "n"
- Compound: "CN(C)CCNC(=O)c1cccc2nc3c(Cl)cccc3nc12"
  Assigned Class: "n"
- Compound: "CC(=O)N(CN1C(=O)CCC1C(=O)O)c1ccccc1 (stereo unspecified)"
  Assigned Class: "n"
- Compound: "CC1CN=C(NCc2ccccc2)S1 (stereo unspecified)"
  Assigned Class: "n"
- Compound: "Cc1cccc(N/C(=C(/C(Cl)=C(Cl)Cl)[N+](=O)[O-])n2nnc3ccccc32)c1"
  Assigned Class: "n"
- Compound: "CC1(C)CCC[C@@]2(C)C1C(=O)[C@@H]1O[C@]1(C)[C@@H]2CO (stereo partly specified)"
  Assigned Class: "n"
- Compound: "O=C(O)CC/C(=N\\Nc1nsc2ccccc12)c1ccc(Cl)cc1"
  Assigned Class: "n"
- Compound: "COc1ccc(C(=O)C(C(=O)C(=O)Nc2nccs2)c2ccc(OC)cc2)cc1 (stereo unspecified)"
  Assigned Class: "n"

Source: ChEMBL document CHEMBL1201862
